- measuredOn: T1, cynomolgus monkey CD19 on peripheral blood B cells (cynomolgus monkey (Macaca fascicularis), UniProt A0A2K5W8L9 20-557)
- T1 construct: whole, on cells; also called cynomolgus monkey B cells
- T1 sequence: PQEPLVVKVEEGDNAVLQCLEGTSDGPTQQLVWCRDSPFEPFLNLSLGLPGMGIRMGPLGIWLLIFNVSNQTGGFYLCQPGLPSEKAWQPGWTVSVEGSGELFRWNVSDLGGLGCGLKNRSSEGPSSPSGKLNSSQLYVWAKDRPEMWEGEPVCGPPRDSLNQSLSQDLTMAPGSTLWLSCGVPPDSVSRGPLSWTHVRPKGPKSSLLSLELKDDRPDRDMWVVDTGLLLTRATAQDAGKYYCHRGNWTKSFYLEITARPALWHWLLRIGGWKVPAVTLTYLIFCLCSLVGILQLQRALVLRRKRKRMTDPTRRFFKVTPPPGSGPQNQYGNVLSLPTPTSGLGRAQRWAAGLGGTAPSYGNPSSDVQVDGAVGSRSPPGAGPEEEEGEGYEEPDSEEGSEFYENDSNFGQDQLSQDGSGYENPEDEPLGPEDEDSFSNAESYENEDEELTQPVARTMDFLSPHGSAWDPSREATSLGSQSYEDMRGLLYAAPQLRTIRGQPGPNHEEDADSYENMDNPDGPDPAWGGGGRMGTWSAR
- assayDetails: FACS, cynomolgus PBMC, CD20+ B cells
Each record here notes measured Proportion of chimeric antibody positive cells to B cells (%) at 10 nM.
Your reply should be a number followed by the unit it is expressed in.

binder	experimentalResult
F4.49.11 (antibody, human IgG1, V domains shown, human-murine chimeric antibody, human IgG1) VH: DVQLRASGPGLVKPSQSLSLTCSVTGYSITSGYYWNWIRQFPGNKLEWMGCISYDGTNNYNPSLKNRISFTRDTSKNQFFLNLNSVTTEDSATYYCARRVYYRYDGVVDYWGQGTSVTVSS VL: ENVLTQSPAIMSASPGEKVTMTCSASSSVSYIHWYQQKSSTAPKLWIYDTSKLASGVPGRFSGSRSRNSYSLTISSMEAEDVATYYCFQGSGYPLTFGSGTKLEIK	96%

Lab note: next binder to report on.
Look at this binder and give its reported Proportion of chimeric antibody positive cells to B cells (%) at 10 nM. F3.64.4 (antibody, human IgG1, V domains shown, human-murine chimeric antibody, human IgG1) VH: EVQLQQSGPELVKPGASVKISCKASGYTFTDYHINWVKQSHGKSPEWIGDINPNNGGTTYNQKFKDKATLTVDKSSSTAFMELRSLTSEDSAVYYCARFITTVVAWYFDVWGTGTTVTVSS VL: DIQMTQSPASLSVSVGETVTITCRASENIYSNLAWYQQKQGKSPQLLVYAATNLADGVPSRFSGSGSGTQYSLKINSLQSEDFGNYYCQRFWDTPRTFGGGTKLEIK 2%

Value source: patent US20250042994A1
